Protocol: Clearance in Lewis rat at 0.25 mg/kg, iv
Type: ADME, organism-based
Parameters: dose 0.25 mg/kg, route intravenous
Condition Label: in vivo
Observed Property: clearance (L/h/kg)
One number for each entry, in L/h/kg.

Prompt: Look up and state reported clearance for Cc1c(F)cc(C(=O)NC2CC2)cc1-c1ccc(C(=O)NCC(C)C)cn1
Response: 0.384

====

Protocol: Oral bioavailability in Lewis rat at 0.25 mg/kg, po
Format: ADME, organism-based
Condition Label: in vivo
What bioavailability was measured for each of the following?
One number for each entry, in %.

Cc1c(F)cc(C(=O)NC2CC2)cc1-c1ccc(C(=O)NCC(C)(C)C)cn1 | 51

Now look at this one.
Prompt: Look up and state reported bioavailability for Cc1c(F)cc(C(=O)NC2CC2)cc1-c1ccc(C(=O)NCC(C)C)cn1
Response: 56
